Reported TGI values are given for each entry in this list.
test system: OVCAR-3 ovarian; experiment: NCI tumour cell line growth inhibition, 48 h

Cn1cc2c(=O)n3ncn(-c4ccc(Br)cc4)c3nc2n1 | > 100 µM
CCOC(=O)N1c2ccccc2S(=O)(=O)c2ccccc21 | > 100 µM
COc1cc(/C=C2/SC(c3ccccc3)N(c3ccc(Cl)cc3)C2=O)cc(OC)c1OC (centres undefined) | > 100 µM
Cn1cnc([N+](=O)[O-])c1SCC(=O)O | > 100 µM
C=C(C)[C@@H]1CC[C@@H](C)[C@](O)([C@@H]2C[C@@H]([C@H](COC(=O)c3ccccc3)OC(=O)c3ccccc3)OC2=O)C1 | > 100 µM

## Input I have this molecule here, COc1ccc(C2SC(N)=Nc3c2c(C)nn3C(=O)c2ccc(Cl)cc2)cc1 (centres undefined) , and I need its recorded TGI.
## Output > 10 µM

## Input Report TGI for COC(=O)C1=C(c2cc(OC)c(OC)c(OC)c2)OC(c2cc(OC)c(OC)c(OC)c2)C1COC(C)=O (centres undefined) please.
## Output > 100 µM

## Input Query (molecule): O=C1C=CN(C2OC(CO)C(O)C2O)C(=O)C1 (centres undefined) ; field requested: TGI
## Output > 1870 µM

## Input Need TGI of COc1ccc(-c2c3c(n(C4OC(CO)C(O)C(O)C4O)c(=S)c2C#N)CC(C)(C)CC3=O)cc1 (centres undefined) , thanks.
## Output > 100 µM
